pIC50: −log10 of the molar value.
Below are pIC50 measurements against Tyrosine-protein kinase JAK3 (Homo sapiens, UniProt P52333) drawn from the literature.

Molecule	Reported Endpoint	Result
CCC(CC)n1cc(-c2nc(-c3cnn(C(CO)CO)c3)cn3nccc23)cn1	pIC50	5.00 to 6.00

Input line: Item under review: `N#Cc1cccc(Nc2nc3cnc(-n4cnc5ccc(Cl)cc54)nc3n2C2CCOCC2)c1` . Reported pIC50?
Output line: < 6.00

Input line: Likewise for `CCCCN(c1ccccc1CNc1nc(-c2cc(F)c(O)cc2CC)cc2[nH]ncc12)S(C)(=O)=O` ?
Output line: 7.56

Input line: Likewise for `CCC(CC)n1cc(-c2nc(-c3cnn(CC4CCOCC4)c3)cn3nccc23)cn1` ?
Output line: 5.00 to 6.00

Input line: Likewise for `CCC(CC)n1cc(-c2nc(-c3cnn(CC4(O)CCNCC4)c3)cn3nccc23)cn1` ?
Output line: 5.00 to 6.00

Input line: Likewise for `C[C@H]1C[C@@H](Nc2c(-c3ncc(S(C)(=O)=O)s3)cnc3[nH]ccc23)CN(C(=O)CC#N)C1` ?
Output line: ≥ 8.00

Input line: Likewise for `CNC(=O)c1coc(-c2cnc3[nH]ccc3c2N[C@@H]2CC[C@H](C)N(C(=O)CC#N)C2)n1` ?
Output line: 6.00 to 7.00

Input line: Likewise for COCCOC(=O)c1cnc2[nH]ccc2c1N[C@H]1CCC[C@@H](CCC#N)C1 (single isomer, unassigned; enantiomer 1) ?
Output line: 7.00 to 8.00

Input line: Likewise for `CN(c1ncnc2[nH]ccc12)C1CCC2(CC1)CCN(C(=O)c1ccc(C#N)cc1F)CC2` ?
Output line: 5.00 to 6.00

Input line: Likewise for Cn1cc(-c2cc3nccn3c(-c3cnn(C(CCF)C4CCC4)c3)n2)cn1 (stereo not shown) ?
Output line: 6.00 to 7.00

Input line: Likewise for `Cc1ccnc(NC(=O)c2ccc(Oc3ccnc4[nH]nc(N[C@@H]5CCCN(C(=O)c6ccccc6)C5)c34)cc2)c1` ?
Output line: < 5.00

Input line: Likewise for `Cn1cc(-c2cc3nccn3c(-c3ccn([C@H](CCF)[C@@H]4CC4(F)F)c3)n2)cn1` ?
Output line: 6.00 to 7.00

Input line: Likewise for `CN(C)C/C=C/C(=O)N1CCC[C@H]1Cn1nc(-c2ccc(Oc3ccccc3)cc2)c2c(N)ncnc21` ?
Output line: < 5.00

Input line: Likewise for CCC(C1CC(F)(F)C1)n1cc(-c2nc(-c3cnn(C[C@@H](O)CO)c3)cn3nccc23)cn1 (stereo partly shown) ?
Output line: 5.00 to 6.00

Input line: Likewise for `Cc1ccc(NC(=O)c2cccc(Cl)c2)cc1-c1ccc2c(c1)[nH]c1ncncc12` ?
Output line: ≥ 6.30

Input line: Likewise for `Cc1nc2cnc(-n3cnc4ccc(C#N)cc43)nc2n1[C@@H]1CC[C@@H](O)c2ccccc21` ?
Output line: > 7.00

* * *

Below are pIC50 measurements against Tyrosine-protein kinase JAK3 (Homo sapiens, UniProt P52333) drawn from the literature.
pIC50: −log10 of the molar value.

Input line: Item under review: `Oc1cccc(-c2nc3cnc(-n4cnc5ccc(F)cc54)nc3n2C2CCOCC2)c1` . Reported pIC50?
Output line: > 7.00

Input line: Likewise for `COCCCNc1nc(-n2cnc3ccc(Cl)cc32)nc2c1[nH]c(=O)n2C1CCOCC1` ?
Output line: > 7.00

Input line: Likewise for `C=CC(=O)Nc1cccc(Nc2cc(Oc3ccc(Oc4ccccc4)cc3)ncn2)n1` ?
Output line: 6.00 to 7.00

Input line: Likewise for `CC(C)(C)Nc1nc(Nc2ccc3c(c2)NC[C@H](O)CO3)ncc1C(N)=O` ?
Output line: 7.00 to 8.00

Input line: Likewise for `CN(C)C/C=C/C(=O)N1CC[C@@H](n2nc(-c3ccc(C(=O)Nc4cc(C(F)(F)F)ccn4)cc3)c3c(N)ncnc32)C1` ?
Output line: < 5.00

Input line: Likewise for CCC(CC)n1cc(-c2nc(-c3cnn([C@H]4CCC[C@H]4O)c3)cn3nccc23)cn1 (single isomer, unassigned) ?
Output line: 5.00 to 6.00

Input line: Likewise for `CCC(=O)c1cnc(Nc2ccc(CN(C)C)nn2)cc1Nc1cccc(-c2ncn(C)n2)c1OC` ?
Output line: ≤ 6.30

Input line: Likewise for `CCC(CC)n1cc(-c2nc(-c3cnn(C[C@@H](O)CO)c3)cn3nccc23)cn1` ?
Output line: 5.00 to 6.00

Input line: Likewise for `CCc1cc(O)c(F)cc1-c1cc2[nH]nc(C(=O)NC)c2c(NCc2ccccc2N(C)S(=O)(=O)CC)n1` ?
Output line: 7.32

* * *

Below are pIC50 measurements against Tyrosine-protein kinase JAK3 (Homo sapiens) drawn from the literature.
pIC50: −log10 of the molar value.

CN(c1ncnc2[nH]ccc12)C1CCC2(CC1)CCN(C(=O)c1cc3ccccc3s1)CC2 5.00 to 6.00
FC(F)(F)CCNCc1n[nH]c2c1CN(c1ncnc3[nH]ccc13)CC2 > 7.00
COc1ccc(-c2cc3c(N[C@@H]4CC[C@](C)(NS(C)(=O)=O)C4(C)C)c(C(N)=O)cnn3c2)cn1 8.77
C=CC(=O)Nc1cccc(Nc2cc(Nc3ccccc3)ncn2)n1 ≥ 8.00
C=CC(=O)N1CCC[C@@H](Nc2n[nH]c3nccc(Oc4ccc(C(=O)Nc5nc(C)c(C)s5)cc4)c23)C1 > 7.00

Input line: Item under review: `NC(=O)c1cnn2cc(-c3ccccc3)cc2c1N[C@H](C(N)=O)c1ccccc1` . Reported pIC50?
Output line: 7.73

Input line: Likewise for `C=CC(=O)Nc1cccc(Oc2nc(Nc3ccc(C(=O)N4CCOCC4)cc3)nc3ccsc23)c1` ?
Output line: 7.00 to 7.30

Input line: Likewise for `C=CC(=O)N1CCC[C@@H](Nc2nc(Nc3cc(C)ns3)nn3cccc23)C1` ?
Output line: ≥ 8.00

* * *

Below are IC50 measurements against Tyrosine-protein kinase JAK3 (Homo sapiens, UniProt P52333) drawn from the literature.

Consider the reported IC50 for these compounds:
Cc1ncc(-c2cc3nccn3c(-c3cnn(C4(CC#N)CN(S(=O)(=O)C5CC5)C4)c3)n2)s1 > 1000 nM
C=CC(=O)Nc1cccc(Oc2nc(Nc3ccc(C(=O)NC4CCN(C)CC4)c(Cl)c3)nc3ccsc23)c1 ≤ 50 nM
C=CC(=O)N1CCC[C@@H](Nc2nc(Nc3cnn(C)c3)nc3ccsc23)C1 10 to 100 nM

Input line: Item under review: `CCC(CC)n1cc(-c2nc(-c3cnn([C@H]4C[C@H](O)C4)c3)cn3nccc23)cn1` . Reported IC50?
Output line: 1000 to 10000 nM

* * *

pIC50: −log10 of the molar value.
Below are pIC50 measurements against Tyrosine-protein kinase JAK3 (Homo sapiens) drawn from the literature.

Consider the reported pIC50 for these compounds:
Compound	pIC50
CCC(=O)c1cnc(Nc2cnc(O[C@H]3CCCN(C)C3)cn2)cc1Nc1cccc(-c2ncn(C)n2)c1OC	≤ 6.30
C=CC(=O)Nc1ccc(CNc2nc(Nc3ccc(N4CCN(C)CC4)cc3OC)ncc2C(F)(F)F)cc1	7.24
C[C@@H](Nc1c(C(N)=O)cnn2cc(-c3ccc(N)nc3)cc12)C1CC1	8.96

Input line: Item under review: `O=C(Nc1cccc(C(F)(F)F)c1)c1ccc(Cl)c(-c2ccc3c(c2)[nH]c2ncncc23)c1` . Reported pIC50?
Output line: ≥ 6.30

Input line: Likewise for Cc1ccnc(NC(=O)c2ccc(Oc3ccnc4[nH]nc(N[C@@H]5CCCN(C(=O)[C@@H]6CCCO6)C5)c34)cc2)c1 (single isomer, unassigned) ?
Output line: < 5.00

Input line: Likewise for `Cn1cc(-c2cc3nccn3c(-c3cnn(C4(CC#N)CN(C(CF)CF)C4)c3)n2)cn1` ?
Output line: < 6.00

Input line: Likewise for `CCCS(=O)(=O)N[C@H]1C[C@@H](Nc2c(-c3nnc(C)o3)cnc3[nH]ccc23)C1` ?
Output line: 6.00 to 7.00

* * *

Below are IC50 measurements against Tyrosine-protein kinase JAK3 (Homo sapiens) drawn from the literature.

Molecule	IC50
CC=C[C@@H](C1CC1)n1cc(-c2nc(-c3cnn(C)c3)cc3nccn23)cn1	100 to 1000 nM

Input line: Item under review: `Cc1cc(Nc2cc3ncccc3c(N[C@@H]3C[C@@H]4CN(CCC#N)C[C@@H]4C3)n2)n[nH]1` . Reported IC50?
Output line: 26.5 nM

Input line: Likewise for `CCC(=O)c1cnc(Nc2ccc(CN(C)C)cn2)cc1Nc1cccc(-c2ncn(C)n2)c1OC` ?
Output line: ≥ 500 nM

* * *

pIC50: −log10 of the molar value.
Below are pIC50 measurements against Tyrosine-protein kinase JAK3 (Homo sapiens) drawn from the literature.

Consider the reported pIC50 for these compounds:
Compound	pIC50
CCOC(=O)c1cnc2[nH]ccc2c1N[C@@H]1CCCN(C(=O)C2(C#N)CC2)C1	≥ 8.00
CC(C(=O)O)n1cc(Nc2ncc3ccn(C[C@H]4CC[C@H](O)CC4)c3n2)cn1 (some centres unmarked)	> 7.00
CN(c1ncnc2[nH]ccc12)C1CC2(C1)CN(C(=O)C1CCC(=O)CC1)C2	5.00 to 6.00
C=CC(=O)Nc1cccc(Oc2nc(Nc3ccc(CN4CCOCC4)cc3)nc3ccsc23)c1	7.00 to 7.30
CN1CCC(c2ccc(Nc3ncc4c(n3)N(c3cccc(S(=O)(=O)NC(C)(C)C)c3)CC4)cc2)CC1	6.01

Input line: Item under review: `C=CC(=O)Nc1cccc(Oc2nc(Nc3ccc(CS(C)(=O)=O)cc3)nc3ccsc23)c1` . Reported pIC50?
Output line: 7.00 to 7.30

Input line: Likewise for `O=c1[nH]c2c(N3CC(F)(F)C3)nc(-n3cnc4ccc(Cl)cc43)nc2n1C1CCOCC1` ?
Output line: > 7.00

Input line: Likewise for `CCOCCO[C@H]1CNc2cc(Nc3ncc(C(N)=O)c(NC4CC4)n3)ccc2OC1` ?
Output line: > 8.00
